B1: library; a variant is named by its letters at X, in order (parent)
chain: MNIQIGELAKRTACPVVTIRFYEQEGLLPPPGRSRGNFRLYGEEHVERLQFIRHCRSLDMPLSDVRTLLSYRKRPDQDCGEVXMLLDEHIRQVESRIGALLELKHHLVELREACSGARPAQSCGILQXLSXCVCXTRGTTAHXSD

- Variants of: B1
- assay_procedure: sfGFP reporter fluorescence (15 h) (µM FITC); higher = higher leak
- run_conditions: library round: Round 2; ligand: none
I'd appreciate it if you could supply sfGFP reporter fluorescence values for the items below.
Answers are plain numbers.

Sample records with sfGFP reporter fluorescence:
INSERT INTO measurements (variant_designation, measurement) VALUES
  ('TGDDP R96A K104V L107I', 0.0526),
  ('SGDDP L85Y K104V', 0.0628);

Fill in sfGFP reporter fluorescence for each of the 4 variants listed.
1. NHDAW
2. TGAPL
3. TGDDP E109D E112K
4. NGADL L129V

Ans.
1: 0.0656; 2: 0.0604; 3: 0.0468; 4: 0.0491
